The measurements presented in this section are drawn from patent US10821114B2.

Molecular target: human CXCR4 receptor (Homo sapiens)
Construct: expressed in transfected cells; host or cells: CHO cells
Assay: In vitro assay of CXCR4 antagonist activity (CellKey impedance, SDF-1α-induced)
Type: cell-based
Details: CHO, transfected CHO cells; agonist SDF-1α at 1 nM (EC80); test concentration not given; read-out: CXCR4 antagonist effect (% inhibition)
Some molecules, each annotated with its measured inhibition.
Only the number, expressed in %, is required.

Worked examples follow.
C/C=C/C1=C(C(=O)O)N2C(=O)[C@@H](NC(=O)[C@H](N)c3ccc(O)cc3)[C@@H]2SC1
38.2
CC1=C(C(=O)O)N2C(=O)[C@@H](NC(=O)[C@H](N)c3ccc(O)cc3)C2SC1 (stereo partly drawn)
14.2

Continue with the next molecule.
inhibition lookup needed for C=CC1=C(C(=O)O)N2C(=O)C(N)C2SC1 (stereo not drawn) , thanks.
25.1

----------
Some compounds, each annotated with its measured inhibition.
Molecular target: human CXCR4 receptor (Homo sapiens, UniProt P61073)
Construct: expressed in transfected cells; host or cells: CHO cells
Sequence (P61073 whole entry): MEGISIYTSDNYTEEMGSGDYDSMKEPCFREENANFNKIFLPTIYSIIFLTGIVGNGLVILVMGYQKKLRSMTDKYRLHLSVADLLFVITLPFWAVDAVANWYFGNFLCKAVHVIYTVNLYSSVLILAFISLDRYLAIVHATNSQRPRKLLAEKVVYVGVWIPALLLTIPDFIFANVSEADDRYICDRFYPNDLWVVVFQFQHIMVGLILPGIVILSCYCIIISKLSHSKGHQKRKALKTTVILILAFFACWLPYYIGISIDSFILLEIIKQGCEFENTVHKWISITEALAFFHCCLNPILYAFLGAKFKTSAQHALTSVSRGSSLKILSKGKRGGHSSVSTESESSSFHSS
Test: In vitro assay of CXCR4 antagonist activity (CellKey impedance, SDF-1α-induced)
Format: cell-based
Settings: CHO, transfected CHO cells; agonist SDF-1α at 1 nM (EC80); test concentration not given; read-out: CXCR4 antagonist effect (% inhibition)

Worked examples follow.
CC1=C(C(=O)O)N2C(=O)[C@@H](NC(=O)Cc3ccccc3)[C@H]2SC1
< 20%
CC(=O)OCC1=C(C(=O)O)N2C(=O)[C@@H](NC(=O)c3ccc(C#N)cc3)[C@H]2SC1
< 20%

Continue with the next compound.
inhibition lookup needed for Cn1nnnc1SCC1=C(C(=O)O)N2C(=O)[C@@H](NC(=O)[C@H](O)c3ccccc3)C2SC1 (stereo partly drawn) , thanks.
< 20%
